# test_system: T1, GFP-9S library array, motif 4 ND N98R;D124S (synthetic construct, N98R;D124S)
# T1 chain: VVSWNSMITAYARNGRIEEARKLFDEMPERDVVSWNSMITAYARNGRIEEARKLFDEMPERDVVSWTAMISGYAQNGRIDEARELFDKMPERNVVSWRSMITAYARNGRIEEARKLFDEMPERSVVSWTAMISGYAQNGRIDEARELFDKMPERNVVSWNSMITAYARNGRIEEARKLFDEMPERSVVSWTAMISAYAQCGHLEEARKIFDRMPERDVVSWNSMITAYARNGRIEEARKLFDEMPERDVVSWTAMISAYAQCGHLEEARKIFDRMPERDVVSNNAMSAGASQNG
# protocol_details: high-throughput RNA pulldown from lysate on Ni-NTA beads; HRP: 50 mM Tris pH 8, 150 mM NaCl, 1 mM beta-mercaptoethanol, 50 ug/ml BSA, 3 ug/ml yeast RNA, 0.5% heparin; ITC and FP: Tris pH 8, 200 mM KCl, 5% glycerol; MST: 50 mM Tris pH 8, 200 mM NaCl, 1 mM DTT, BSA, heparin, 0.05% Tween 20
# experimental_setup: tags: N-terminal His-eGFP; label: 5' IRDye 800CW
Please provide measured Kd for the entries that follow.
Numbers only, in nM.

Below are some binders; for each one, tell me its Kd.
1. AUUAUACGUGA (ssRNA) [IR-rpoA-U]
2. AUUAAACGUGA (ssRNA) [IR-rpoA-A]

Ans:
[88.9, 184]
